B1: PCDHGA10 (parent)
chain: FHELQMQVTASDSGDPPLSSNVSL

# Variants of: B1
# assay.comment: protein stability index of a GFP-peptide fusion (GPS, HEK-293T) (PSI 1-6); higher = more stable;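 also: lentivirally expressed fusions sorted by FACS into six bins by GFP to DsRed ratio, PSI derived from sequencing read proportions per bin multiplied by bin number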
# condition.info: c terminus: a fixed tail appended
Reported protein stability index values are given for each entry in this list.
Just the number, please, no unit after it.

mutation.notation: S23G
recorded.value: 2.01
--
mutation.notation: A10Q
recorded.value: 2.44

Qu. Dear colleague, I am looking for the recorded protein stability index of the following variant: `P16K`
Ans. 2.36

Qu. Dear colleague, I am looking for the recorded protein stability index of the following variant: `P17V`
Ans. 1.78

Qu. Dear colleague, I am looking for the recorded protein stability index of the following variant: `V8W`
Ans. 1.25

Qu. Dear colleague, I am looking for the recorded protein stability index of the following variant: `L18V`
Ans. 2.43

Qu. Dear colleague, I am looking for the recorded protein stability index of the following variant: `M6D`
Ans. 3.81

Qu. Dear colleague, I am looking for the recorded protein stability index of the following variant: `L18G`
Ans. 3.05

Where do these numbers come from? They come from the supplement of paper PMC10567573.
